Values from the kinase profiling compilation of Christmann-Franck et al. (2016)

target: NTRK3 (human) (UniProt Q16288); test: KINOMEscan competition binding; details: compound 10.0 µM
Sequence (Q16288 whole entry, looked up): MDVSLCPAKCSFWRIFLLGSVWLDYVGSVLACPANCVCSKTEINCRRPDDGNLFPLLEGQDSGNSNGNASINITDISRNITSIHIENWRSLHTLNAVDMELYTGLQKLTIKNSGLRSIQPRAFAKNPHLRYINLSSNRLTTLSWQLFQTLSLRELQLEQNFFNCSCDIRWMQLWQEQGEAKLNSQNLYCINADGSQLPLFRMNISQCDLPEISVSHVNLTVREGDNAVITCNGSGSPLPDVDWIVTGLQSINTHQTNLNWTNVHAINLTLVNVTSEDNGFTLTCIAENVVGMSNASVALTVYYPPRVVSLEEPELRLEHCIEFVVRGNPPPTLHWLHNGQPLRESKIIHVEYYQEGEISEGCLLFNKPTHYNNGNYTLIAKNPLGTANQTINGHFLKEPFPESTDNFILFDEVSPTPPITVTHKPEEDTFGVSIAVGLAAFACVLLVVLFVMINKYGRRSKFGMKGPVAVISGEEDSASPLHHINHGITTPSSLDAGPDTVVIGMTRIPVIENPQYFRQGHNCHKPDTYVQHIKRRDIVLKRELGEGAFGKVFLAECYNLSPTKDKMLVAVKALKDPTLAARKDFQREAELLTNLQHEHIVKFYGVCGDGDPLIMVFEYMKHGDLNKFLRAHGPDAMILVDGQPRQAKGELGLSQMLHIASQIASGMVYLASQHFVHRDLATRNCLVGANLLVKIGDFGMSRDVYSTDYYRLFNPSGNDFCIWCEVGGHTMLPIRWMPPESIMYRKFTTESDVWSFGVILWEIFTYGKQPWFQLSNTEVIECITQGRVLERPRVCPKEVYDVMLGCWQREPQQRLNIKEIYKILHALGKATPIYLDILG
PROPERTY NAME: kinase still bound, per cent of control (%)
One number for each entry, in %.

Field: example entries. Status: answers known.
CCC(=O)N1CCN(c2ccc(-n3c(=O)ccc4cnc5ccc(-c6cnc7ccccc7c6)cc5c43)cc2C(F)(F)F)CC1 ... 100
COC(=O)Nc1ccc(-c2nc(N3CCOCC3)c3cnn(C4CCN(C(=O)OC)CC4)c3n2)cc1 ... 100
CC(C)n1nc(-c2cc3cc(O)ccc3[nH]2)c2c(N)ncnc21 ... 49

Next compound, kinase still bound, per cent of control to be filled in.
Prompt: Quick one: kinase still bound, per cent of control of COc1ccc(-c2ccc3c(N4CCOCC4)nc(N4C[C@@H](C)O[C@@H](C)C4)nc3n2)cc1CO ?
Response: 77

====

system: FLT3 (human), P36888 [D835Y]; experiment: KINOMEscan competition binding; conditions: compound 10.0 µM
I'd be grateful if you could share measured kinase still bound, per cent of control for these entries.
Give bare numbers, in %.

Field: example entries. Status: answers known.
COC(=O)Nc1ccc(-c2nc(N3CCOCC3)c3cnn(C4CCN(C(=O)OC)CC4)c3n2)cc1 ... 100
COc1ccc(-c2ccc3c(N4CCOCC4)nc(N4C[C@@H](C)O[C@@H](C)C4)nc3n2)cc1CO ... 86
CCC(=O)N1CCN(c2ccc(-n3c(=O)ccc4cnc5ccc(-c6cnc7ccccc7c6)cc5c43)cc2C(F)(F)F)CC1 ... 16

Prompt: Quick one: kinase still bound, per cent of control of CC(C)n1nc(-c2cc3cc(O)ccc3[nH]2)c2c(N)ncnc21 ?
Response: 7

====

target: CDK13 (human) (UniProt Q14004); assay: KINOMEscan competition binding; settings: compound 10.0 µM
Sequence (Q14004 whole entry, looked up): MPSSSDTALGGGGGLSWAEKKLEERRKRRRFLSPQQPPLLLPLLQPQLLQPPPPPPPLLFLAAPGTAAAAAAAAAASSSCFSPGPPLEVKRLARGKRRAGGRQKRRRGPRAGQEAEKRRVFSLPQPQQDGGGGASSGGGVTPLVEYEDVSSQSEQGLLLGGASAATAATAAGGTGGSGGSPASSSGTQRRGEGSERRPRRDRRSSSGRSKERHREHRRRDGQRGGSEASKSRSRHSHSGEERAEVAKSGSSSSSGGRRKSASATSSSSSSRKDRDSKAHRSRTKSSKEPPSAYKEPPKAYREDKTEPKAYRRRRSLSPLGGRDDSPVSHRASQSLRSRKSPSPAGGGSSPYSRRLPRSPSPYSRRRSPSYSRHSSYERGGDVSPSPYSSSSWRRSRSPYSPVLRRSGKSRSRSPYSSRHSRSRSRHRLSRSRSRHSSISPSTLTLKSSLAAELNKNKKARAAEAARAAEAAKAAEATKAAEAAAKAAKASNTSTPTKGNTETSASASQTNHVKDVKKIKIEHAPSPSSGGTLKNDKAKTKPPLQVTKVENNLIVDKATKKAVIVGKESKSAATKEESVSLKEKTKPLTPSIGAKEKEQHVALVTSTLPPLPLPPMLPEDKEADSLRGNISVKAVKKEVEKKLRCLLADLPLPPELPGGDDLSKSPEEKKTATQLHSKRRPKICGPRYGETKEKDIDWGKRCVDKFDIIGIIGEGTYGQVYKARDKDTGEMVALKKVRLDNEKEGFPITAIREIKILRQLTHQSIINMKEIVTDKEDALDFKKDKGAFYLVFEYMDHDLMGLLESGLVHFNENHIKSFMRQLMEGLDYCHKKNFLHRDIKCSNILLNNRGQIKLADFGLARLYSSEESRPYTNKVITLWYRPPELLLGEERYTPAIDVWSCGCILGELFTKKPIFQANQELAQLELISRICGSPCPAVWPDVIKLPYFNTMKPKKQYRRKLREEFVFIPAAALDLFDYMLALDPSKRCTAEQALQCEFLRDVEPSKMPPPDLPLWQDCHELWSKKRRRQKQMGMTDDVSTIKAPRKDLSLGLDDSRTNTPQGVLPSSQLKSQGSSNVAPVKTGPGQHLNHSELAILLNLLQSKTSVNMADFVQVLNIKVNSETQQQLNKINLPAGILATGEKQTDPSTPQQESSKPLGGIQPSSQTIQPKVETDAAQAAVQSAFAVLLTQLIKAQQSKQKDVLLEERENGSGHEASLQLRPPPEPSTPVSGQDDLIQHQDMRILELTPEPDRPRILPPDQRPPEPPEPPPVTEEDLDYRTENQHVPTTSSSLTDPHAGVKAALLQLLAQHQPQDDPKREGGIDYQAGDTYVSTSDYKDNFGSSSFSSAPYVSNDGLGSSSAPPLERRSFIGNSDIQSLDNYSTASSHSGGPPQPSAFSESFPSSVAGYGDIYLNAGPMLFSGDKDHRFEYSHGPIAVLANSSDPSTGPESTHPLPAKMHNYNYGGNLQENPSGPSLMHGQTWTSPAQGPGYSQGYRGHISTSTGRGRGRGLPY
I'd be grateful if you could share measured per cent of control for these entries.
One number for each entry, in %.

COC(=O)Nc1ccc(-c2nc(N3CCOCC3)c3cnn(C4CCN(C(=O)OC)CC4)c3n2)cc1 ... 100

For the 3 compounds below, give their per cent of control values.
1. CC(C)n1nc(-c2cc3cc(O)ccc3[nH]2)c2c(N)ncnc21
2. CCC(=O)N1CCN(c2ccc(-n3c(=O)ccc4cnc5ccc(-c6cnc7ccccc7c6)cc5c43)cc2C(F)(F)F)CC1
3. COc1ccc(-c2ccc3c(N4CCOCC4)nc(N4C[C@@H](C)O[C@@H](C)C4)nc3n2)cc1CO

Response:
1. 100
2. 80
3. 100

====

biological target: MAPK13 (human) (UniProt O15264); details: compound 10.0 µM
Sequence (O15264 whole entry, looked up): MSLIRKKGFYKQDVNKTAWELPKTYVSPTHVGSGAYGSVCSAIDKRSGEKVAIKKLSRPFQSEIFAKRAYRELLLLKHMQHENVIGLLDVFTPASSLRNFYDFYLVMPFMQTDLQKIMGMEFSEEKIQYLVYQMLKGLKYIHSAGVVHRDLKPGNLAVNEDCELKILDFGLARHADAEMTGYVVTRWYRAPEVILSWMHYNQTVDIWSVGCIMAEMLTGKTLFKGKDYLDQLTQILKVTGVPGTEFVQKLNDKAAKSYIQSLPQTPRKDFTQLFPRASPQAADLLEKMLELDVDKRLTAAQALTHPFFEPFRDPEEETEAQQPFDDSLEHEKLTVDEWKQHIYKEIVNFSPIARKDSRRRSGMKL
PROPERTY NAME: per cent of control (%)
Numbers only, in %.

Field: example entries. Status: answers known.
CCC(=O)N1CCN(c2ccc(-n3c(=O)ccc4cnc5ccc(-c6cnc7ccccc7c6)cc5c43)cc2C(F)(F)F)CC1 ... 97
CC(C)n1nc(-c2cc3cc(O)ccc3[nH]2)c2c(N)ncnc21 ... 73
COC(=O)Nc1ccc(-c2nc(N3CCOCC3)c3cnn(C4CCN(C(=O)OC)CC4)c3n2)cc1 ... 10

Prompt: Form entry - test system: MAPK13 (human) (UniProt O15264); read-out: per cent of control; molecule: COc1ccc(-c2ccc3c(N4CCOCC4)nc(N4C[C@@H](C)O[C@@H](C)C4)nc3n2)cc1CO
Response: 87
